Provenance of the data: patent US10442767B2

protocol-summary: Pharmacokinetic study after single intravenous dose
Assay type: in vivo, mice (CD-1)
conditions-used: female, CD-1, mouse, brain and plasma, mice, i.v. 0.75 mg/kg, read-out: Cbrain/Cplasma (maximum in the brain over maximum in plasma)
Measured Kp of individual entries
property-measured: Kp

compound	reading
Nc1ccncc1 [4-AP, 4-aminopyridine, reference compound]	0.1
Nc1ccncc1F [3-F-4-AP, 3-fluoro-4-aminopyridine]	0.214

====

protocol-summary: Pharmacokinetic study after single intravenous dose
Type: in vivo, mice (CD-1)
conditions-used: female, CD-1, mouse, brain, mice, i.v. 0.75 mg/kg, read-out: half-life in brain (converted)

compound	units-text	half-life
Nc1ccncc1 [4-AP, 4-aminopyridine, reference compound]	h	1.9
Nc1ccncc1F [3-F-4-AP, 3-fluoro-4-aminopyridine]	h	1.43

====

target: Shaker K^+ channel (Drosophila melanogaster, UniProt P08510)
Construct: injecting approximately 50 ng of WT Shaker cRNA (kit Ambion) into the oocytes; expressed in transfected cells; host or cells: Xenopus laevis oocytes (cRNA injection)
Sequence (P08510 whole entry): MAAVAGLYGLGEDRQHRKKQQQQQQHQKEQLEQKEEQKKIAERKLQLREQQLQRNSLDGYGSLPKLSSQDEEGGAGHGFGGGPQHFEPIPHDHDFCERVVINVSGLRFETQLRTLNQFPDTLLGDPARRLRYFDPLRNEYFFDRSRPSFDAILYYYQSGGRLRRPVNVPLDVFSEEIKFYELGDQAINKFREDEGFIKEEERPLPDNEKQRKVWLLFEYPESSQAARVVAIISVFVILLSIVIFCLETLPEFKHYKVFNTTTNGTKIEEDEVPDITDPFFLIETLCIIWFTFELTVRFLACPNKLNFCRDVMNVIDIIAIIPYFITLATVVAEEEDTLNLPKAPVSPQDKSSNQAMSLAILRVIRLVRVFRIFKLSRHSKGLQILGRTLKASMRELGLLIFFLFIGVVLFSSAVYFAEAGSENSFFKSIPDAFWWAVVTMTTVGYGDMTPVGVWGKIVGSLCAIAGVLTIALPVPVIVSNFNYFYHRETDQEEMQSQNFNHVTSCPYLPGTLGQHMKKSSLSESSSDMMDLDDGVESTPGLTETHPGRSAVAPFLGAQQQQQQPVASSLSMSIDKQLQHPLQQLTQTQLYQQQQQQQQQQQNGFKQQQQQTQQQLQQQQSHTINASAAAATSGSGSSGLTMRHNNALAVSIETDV
protocol-summary: Inhibition of K+ currents, cut-open oocyte voltage clamp
Format: cell-based, Xenopus oocytes
conditions-used: relative K+ current at +20 mV, Xenopus oocytes, Hill fit; read-out: half-maximal inhibitory concentration (IC50)
Measured IC50 of individual entries

compound	rel	IC50 [mM]
Nc1ccncc1F [3-F-4-AP, 3-fluoro-4-aminopyridine]	=	0.25
Nc1ccncc1CCF [3-EtF-4-AP, 3-fluoroethyl-4-aminopyridine]	>	10
Nc1ccnc(F)c1 [2-F-4-AP, 2-fluoro-4-aminopyridine]	>	10
Nc1ccncc1CO [3-MeOH-4-AP, 3-methanol-4-aminopyridine, reference compound]	=	4.38
Nc1ccncc1CF [3-MeF-4-AP, 3-fluoromethyl-4-aminopyridine]	=	7.45
